target: mu opioid receptor (MOR) (Homo sapiens, UniProt P35372); assay: MOR cAMP antagonist assay; assay type: cell-based; parameters: host or cells: CHO-K1; settings: read-out: MOR cAMP IC50; CHO-K1 cells expressing mOR; after activation with DAMGO at the EC80
Sequence (P35372 whole entry): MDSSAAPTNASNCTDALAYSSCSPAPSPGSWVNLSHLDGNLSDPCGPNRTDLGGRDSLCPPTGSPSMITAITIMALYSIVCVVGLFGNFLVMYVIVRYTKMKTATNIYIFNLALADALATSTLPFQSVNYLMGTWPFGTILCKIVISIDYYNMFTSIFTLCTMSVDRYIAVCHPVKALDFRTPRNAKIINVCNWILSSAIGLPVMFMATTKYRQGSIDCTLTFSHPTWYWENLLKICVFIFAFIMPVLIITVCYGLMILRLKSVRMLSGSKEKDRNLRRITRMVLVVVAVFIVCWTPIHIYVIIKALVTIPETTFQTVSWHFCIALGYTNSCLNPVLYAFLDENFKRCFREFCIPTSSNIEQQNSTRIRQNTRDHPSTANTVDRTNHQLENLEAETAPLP
Parameter Measured: IC50

Given item CC(CC(=O)NC[C@H](Cc1ccc2c(c1)CC(=O)N2)N(C)C)c1ccccc1 (stereo in doubt) , the value recorded as its IC50 is < 100 nM

---

molecular target: mu opioid receptor (MOR) (Homo sapiens); assay: MOR GTPγS agonist assay; format: biochemical; set-up: host or cells: CHO-K1; conditions: membranes of CHO cells over-expressing MOR; SPA beads; read-out: MOR GTPγS EC50
pEC50: −log10 of the molar value.
Parameter Measured: pEC50

Cc1cc(O)cc(C)c1C[C@@H](CNC(=O)c1ccc2occc2c1)N(C)C : > 7.00
CNC(=O)c1ccc(C[C@@H](CNC(=O)c2cccc(Cl)c2)N(C)C)c(Cl)c1 : > 7.00
Cc1cnc(C(=O)NC[C@H](Cc2ccc3n[nH]cc3c2)N(C)C)c(C)c1 : < 6.00
CNC(=O)c1cc(C)c(C[C@@H](CNC(=O)c2cc(Cl)cc(Cl)c2)N(C)C)c(C)c1 : > 7.00
CNC(=O)c1cc(C)c(C[C@@H](CNC(=O)c2ccc(F)c(Cl)c2)N(C)C)c(C)c1 : > 7.00

# molecule "CNC(=O)c1cc(C)c(C[C@@H](CNC(=O)c2ccccc2Cl)N(C)C)c(C)c1" ; its pEC50 = 6.00 to 7.00

Just so you know, measured pEC50 for "CN(C)[C@H](CNC(=O)c1cccc(Cl)c1)Cc1ccc(O)cc1Cl" came out at > 7.00

GET /value?item= "Cc1cc(O)cc(C)c1C[C@@H](CNC(=O)c1nccc2ccccc12)N(C)C" &field=pEC50 returns > 7.00
